# study.target: SMARCA2 (Homo sapiens, UniProt P51531)
# Construct: endogenous in cells; host or cells: HT1080 (CRISPR HiBiT knock-in clone, generated in house)
# Sequence (P51531 whole entry): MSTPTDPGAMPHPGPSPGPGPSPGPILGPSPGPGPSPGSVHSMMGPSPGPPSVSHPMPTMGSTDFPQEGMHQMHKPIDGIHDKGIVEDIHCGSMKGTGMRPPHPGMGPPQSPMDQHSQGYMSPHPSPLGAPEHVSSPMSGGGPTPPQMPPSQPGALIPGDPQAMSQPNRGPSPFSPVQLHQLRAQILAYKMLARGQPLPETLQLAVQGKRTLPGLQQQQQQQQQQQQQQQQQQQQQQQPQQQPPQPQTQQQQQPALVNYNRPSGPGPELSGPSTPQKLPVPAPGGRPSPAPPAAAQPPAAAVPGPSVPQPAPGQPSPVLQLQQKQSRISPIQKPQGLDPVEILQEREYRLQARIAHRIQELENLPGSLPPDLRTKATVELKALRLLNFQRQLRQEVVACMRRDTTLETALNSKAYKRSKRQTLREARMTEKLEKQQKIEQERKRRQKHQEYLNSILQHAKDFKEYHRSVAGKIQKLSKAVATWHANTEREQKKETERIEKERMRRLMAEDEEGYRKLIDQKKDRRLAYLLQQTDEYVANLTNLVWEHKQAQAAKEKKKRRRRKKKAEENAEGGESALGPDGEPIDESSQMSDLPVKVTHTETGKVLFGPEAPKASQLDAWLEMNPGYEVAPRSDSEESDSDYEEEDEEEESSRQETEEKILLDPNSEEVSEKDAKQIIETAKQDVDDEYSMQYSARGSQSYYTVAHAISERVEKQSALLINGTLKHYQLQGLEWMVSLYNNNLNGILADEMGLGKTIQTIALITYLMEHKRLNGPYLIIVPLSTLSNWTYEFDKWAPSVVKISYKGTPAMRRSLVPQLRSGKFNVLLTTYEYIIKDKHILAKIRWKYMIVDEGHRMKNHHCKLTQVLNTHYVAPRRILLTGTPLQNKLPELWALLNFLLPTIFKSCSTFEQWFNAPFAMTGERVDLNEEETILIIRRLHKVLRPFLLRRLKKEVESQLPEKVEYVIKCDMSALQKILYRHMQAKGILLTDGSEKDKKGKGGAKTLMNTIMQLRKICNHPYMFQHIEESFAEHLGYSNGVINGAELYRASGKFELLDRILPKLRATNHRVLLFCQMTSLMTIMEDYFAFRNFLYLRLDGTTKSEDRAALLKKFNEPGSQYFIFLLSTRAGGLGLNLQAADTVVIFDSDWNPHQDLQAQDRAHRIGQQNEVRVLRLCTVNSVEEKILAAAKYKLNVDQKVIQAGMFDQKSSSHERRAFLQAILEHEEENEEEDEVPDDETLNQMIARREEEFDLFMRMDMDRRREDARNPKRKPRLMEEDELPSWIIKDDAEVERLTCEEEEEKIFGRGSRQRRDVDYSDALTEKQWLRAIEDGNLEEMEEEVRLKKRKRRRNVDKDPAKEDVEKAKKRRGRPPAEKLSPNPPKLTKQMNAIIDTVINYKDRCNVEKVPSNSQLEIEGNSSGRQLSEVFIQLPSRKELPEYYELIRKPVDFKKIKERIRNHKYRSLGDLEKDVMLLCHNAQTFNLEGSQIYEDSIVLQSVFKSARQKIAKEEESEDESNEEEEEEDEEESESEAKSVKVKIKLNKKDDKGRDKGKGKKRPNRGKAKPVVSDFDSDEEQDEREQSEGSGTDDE
# test: SMARCA2 HiBiT degradation assay (cellular)
# Type: cell-based
# measurement.context: A549, 6 h incubation; Emax = amount of residual protein remaining in the cell following compound treatment; table head names A549
property.measured: Emax (%)

- Nc1nnc(-c2ccccc2O)cc1N1CCC(C(=O)N2CC3(CN(C(=O)CC4CCN(c5ccc6c(c5)C(=O)N(C5CCC(=O)NC5=O)C6=O)CC4)C3)C2)(c2ccccc2)CC1 (stereo not drawn): 29
- Nc1nnc(-c2ccccc2O)cc1N1CC2CCC(C1)N2c1cccc(OCCN2CCN(C(=O)N3C[C@@H]4CN(c5ccc6c(c5)C(=O)N(C5CCC(=O)NC5=O)C6=O)C[C@@H]4C3)CC2)c1 (relative stereo): 68
- Nc1nnc(-c2ccccc2O)cc1N1CCC(OCC(=O)NC2CCN(C(=O)CN3CCC(c4ccc(OC5CCC(=O)NC5=O)cc4)CC3)CC2)(c2ccccc2)CC1 (stereo not drawn): 61

---

# study.target: SMARCA2 (Homo sapiens, UniProt P51531)
# Construct: endogenous in cells; host or cells: HT1080 (CRISPR HiBiT knock-in clone, generated in house)
# test: SMARCA2 HiBiT degradation assay (cellular)
# Type: cell-based
# measurement.context: 6 h incubation; HiBiT-tagged SMARCA2, luminescence read-out; table head names A549; read-out: HiBit A549 SMARCA2 IP (nM) 6 h
DC50 by entry:
property.measured: DC50 (nM)

* Nc1nnc(-c2ccccc2O)cc1N1CC2CCC(C1)N2c1cccc(CN2CCN(C(=O)C3CN(c4ccc5c(c4)C(=O)N(C4CCC(=O)NC4=O)C5=O)C3)CC2)c1 (racemic) [Example 179] | 100
* Nc1nnc(-c2ccccc2O)cc1N1CCC(NC(=O)CCCN2CCC(c3ccc(NC4CCC(=O)NC4=O)cc3)CC2)(c2ccccc2)CC1 (centres unmarked) [Example 91] | 90
* Nc1nnc(-c2ccccc2O)cc1N1CCN(c2cccc(CN3CCN(C(=O)CC4CCN(c5ccc6c(c5)C(=O)N(C5CCC(=O)NC5=O)C6=O)CC4)CC3)c2)C2(CC2)C1 (centres unmarked) [Example 130] | 12
* Nc1nnc(-c2ccccc2O)cc1N1CC(Oc2ccc(CN3CCN(C(=O)CCCCCCCCCNc4cccc5c4C(=O)N(C4CCC(=O)NC4=O)C5=O)CC3)cc2)C1 (centres unmarked) [Example 68] | 201
* Nc1nnc(-c2ccccc2O)cc1OC1CCCN(c2ccc(N3CCN(CCCCCCCCCc4ccc(CNc5cccc6c5C(=O)N(C5CCC(=O)NC5=O)C6=O)nc4)CC3)cc2)C1 (centres unmarked) [Example 136] | 495
* Nc1nnc(-c2ccccc2O)cc1OC1CCCN(c2ccc(N3CCN(CCCCCCCCCn4cc(CNc5cccc6c5C(=O)N(C5CCC(=O)NC5=O)C6=O)nn4)CC3)cc2)C1 (centres unmarked) [Example 37] | 57
* Nc1nnc(-c2ccccc2O)cc1N1CCC(C(=O)N2CC3(CCN(C(=O)C4CCN(c5ccc6c(c5)C(=O)N(C5CCC(=O)NC5=O)C6=O)CC4)CC3)C2)(c2ccccc2)CC1 (centres unmarked) [Example 163] | 22
* Nc1nnc(-c2ccccc2O)cc1OC1CCCN(c2ccc(N3CCN(C(=O)CCCCCCCCn4cc(CNc5cccc6c5C(=O)N(C5CCC(=O)NC5=O)C6)nn4)CC3)cc2)C1 (centres unmarked) [Example 111] | 177
* Nc1nnc(-c2ccccc2O)cc1N1CC(Oc2ccc(C(=O)N3CCN(C(=O)CCCCCCCCCNc4cccc5c4C(=O)N(C4CCC(=O)NC4=O)C5=O)CC3)cc2)C1 (centres unmarked) [Example 150] | 553
* Nc1nnc(-c2ccccc2O)cc1N1CCC(C(=O)NCC2CCN(C(=O)CCCN3CCC(c4ccc(OC5CCC(=O)NC5=O)cc4)CC3)CC2)(c2ccccc2)CC1 (centres unmarked) [Example 104] | 103
* Nc1nnc(-c2ccccc2O)cc1N1CCC(C(=O)N2CCC(C(=O)N3CCC(c4ccc(NC5CCC(=O)NC5=O)cn4)CC3)CC2)(c2ccccc2)CC1 (centres unmarked) [Example 177] | 174

---

# study.target: SMARCA2 (Homo sapiens)
# Construct: endogenous in cells; host or cells: HT1080 (CRISPR HiBiT knock-in clone, generated in house)
# test: SMARCA2 HiBiT degradation assay (cellular)
# Assay type: cell-based
# measurement.context: 6 h incubation; HiBiT-tagged SMARCA2, luminescence read-out; table head names A549; read-out: HiBit A549 SMARCA2 IP (nM) 6 h
Param label: returns t when DC50 < 50 nM, returns f otherwise, including exact equality.

• Nc1nnc(-c2ccccc2O)cc1N1CCC(CNC(=O)CC2CCN(c3ccc4c(c3)C(=O)N(C3CCC(=O)NC3=O)C4=O)CC2)(c2ccccc2)CC1 (stereo not drawn) = f
• Nc1nnc(-c2ccccc2O)cc1OC1CCCN(c2ccc(N3CCN(C(=O)CCCCCCCCN4CCC(Oc5ccc6c(c5)C(=O)N(C5CCC(=O)NC5=O)C6=O)CC4)CC3)cc2)C1 (stereo not drawn) = f
• Nc1nnc(-c2ccccc2O)cc1N1CC2CCC(C1)N2c1ccccc1OCCN1CCN(c2ccc3c(c2)C(=O)N(C2CCC(=O)NC2=O)C3=O)CC1 (racemic) = f
• Nc1nnc(-c2ccccc2O)cc1N1CC2CCC(C1)N2c1nccc(OCCN2CCN(CCCOC3CCN(c4ccc5c(c4)C(=O)N(C4CCC(=O)NC4=O)C5=O)CC3)CC2)n1 (racemic) = t
• Nc1nnc(-c2ccccc2O)cc1N1CC2CCC(C1)N2c1cccc(OCCN2CCN(C(=O)C3CN(c4ccc5c(c4)C(=O)N(C4CCC(=O)NC4=O)C5=O)C3)CC2)c1 (racemic) = t
• Nc1nnc(-c2ccccc2O)cc1N1CCN(c2ccccc2)C(C(=O)NCC2CCC(NC(=O)C3CCN(c4ccc5c(c4)C(=O)N(C4CCC(=O)NC4=O)C5=O)CC3)CC2)C1 (stereo not drawn) = f
• Nc1nnc(-c2ccccc2O)cc1N1CCC(C(=O)N2CCC3(CC2)CN(C(=O)CN2CCN(c4ccc(NC5CCC(=O)NC5=O)cc4)CC2)CCO3)(c2ccccc2)CC1 (stereo not drawn) = f
• Nc1nnc(-c2ccccc2O)cc1N1CC2CCC(C1)N2c1cccc(OCCN2CCN(CCCOC3CCN(c4ccc5c(c4)C(=O)N(C4CCC(=O)NC4=O)C5=O)CC3)CC2)c1 (racemic) = t
• Nc1nnc(-c2ccccc2O)cc1N1CCC(C(=O)NCC2CCN(CC3CCN(c4ccc5c(c4)C(=O)N(C4CCC(=O)NC4=O)C5=O)CC3)CC2)(c2ccccc2)C1 (stereo not drawn) = f
• Nc1nnc(-c2ccccc2O)cc1N1CC2CCC(C1)N2c1cccc(OCCN2CCN(C(=O)CCCCCCNc3cccc4c3C(=O)N(C3CCC(=O)NC3=O)C4=O)CC2)c1 (stereo not drawn) = f
• Nc1nnc(-c2ccccc2O)cc1N1CCN(c2ccccc2)C(C(=O)NC2CCN(C(=O)C3CCN(c4ccc5c(c4)C(=O)N(C4CCC(=O)NC4=O)C5=O)CC3)CC2)C1 (stereo not drawn) = f
• CC(Oc1cccc2c1C(=O)N(C1CCC(=O)NC1=O)C2=O)c1cn(CCCCCCCCCN2CCN(c3ccc(N4CCC[C@H](Oc5cc(-c6ccccc6O)nnc5N)C4)cc3)CC2)nn1 (mixture of isomers) = f
• Nc1nnc(-c2ccccc2O)cc1N1CCC(C(=O)N2CC3(CN(C(=O)CC4CCN(c5ccc6c(c5)C(=O)N(C5CCC(=O)NC5=O)C6=O)CC4)C3)C2)(c2ccccc2)CC1 (stereo not drawn) = f
• Nc1nnc(-c2ccccc2O)cc1N1CC2CCC(C1)N2c1cccc(CN2CCN(C(=O)CCC3CCN(c4ccc5c(c4)C(=O)N(C4CCC(=O)NC4=O)C5=O)CC3)CC2)c1 (racemic) = t
• Nc1nnc(-c2cc(F)cc(F)c2O)cc1N1CCC(CNC(=O)CCCN2CCC(c3ccc(OC4CCC(=O)NC4=O)cc3)CC2)(c2ccccc2)CC1 (stereo not drawn) = f
• Nc1nnc(-c2ccccc2O)cc1N1CC2CCC(C1)N2c1cccc(OCCN2CCN(C(=O)CN3CCC(c4ccc(OC5CCC(=O)NC5=O)cc4)CC3)CC2)c1 (racemic) = t
• Nc1nnc(-c2ccccc2O)cc1N1CC(Oc2cccc(N3CCN(C(=O)CCCCCCCCCNc4cccc5c4C(=O)N(C4CCC(=O)NC4=O)C5=O)CC3)c2)C1 (stereo not drawn) = f
• Nc1nnc(-c2ccccc2O)cc1N1CCN(c2cccc(OCCN3CCN(C(=O)C4CCN(c5ccc6c(c5)C(=O)N(C5CCC(=O)NC5=O)C6=O)CC4)CC3)c2)C2(CCC2)C1 (stereo not drawn) = t
• Nc1nnc(-c2ccccc2O)cc1N1CC(Oc2cccc(N3CCN(C(=O)C4CCN(c5ccc6c(c5)C(=O)N(C5CCC(=O)NC5=O)C6=O)CC4)CC3)c2)C1 (racemic) = t
• Nc1nnc(-c2ccccc2O)cc1OC1CCCN(c2ccc(OCCN3CCN(C(=O)CCCCCCCCn4cc(CNc5cccc6c5C(=O)N(C5CCC(=O)NC5=O)C6=O)nn4)CC3)cc2)C1 (stereo not drawn) = f
• Nc1nnc(-c2ccccc2O)cc1N1CC2CCC(C1)N2c1cccc(OCCN2CCN(C(=O)CCC(=O)N3CCC(Nc4cccc5c4C(=O)N(C4CCC(=O)NC4=O)C5=O)CC3)CC2)c1 (racemic) = f
